# System: MS2 coat protein
# assayMethodText: apparent Kd, MS2 coat protein; higher = weaker binding; RNA-MaP array; theophylline 2 mM where present
# measurementParameters: designed as: ON switch for theophylline; no ligand
Class Y: apparent Kd at least 400 nM. Class N: apparent Kd below 400 nM.

CCUCAUGUGUAUCACCACAUGAGUGGUGAUACCAGCAUCGAAAGAUGCCCUUGGCAGCACCAACAUGAGGAUCACCCAUGUAAUA; N
UGCAUCAUAAUCAUGUAGGUGCUAGGUGAUACCAGCAUCGAAAGAUGCCCUUGGCAGCACCAACAUGAGGAUCACCCAUGUAAUA; N
CUCCGAGGCUAUACUAUACGCCUUUGUGAUACCAGAAUAAAUAUAUUCCCUUGGCAGCAUCACAUGAGGAUCACCCAUGUGCCAU; N
ACUCGGUAUGUCUAAUACCGAGAGUAUGAUACCAGUAUGGUGACAUACCCUUGGCAGCAUGGGACAUGAGGAUCACCCAUGUGUU; Y

Could you please find out whether UCUACAUGAGGAUCACCCAUGUGCCAUGAUACCAGACAUGAAAAUGUCCCUUGGCAGCAUGGGUAGCGCAUCCGAAAGGAUGCGU has apparent Kd that meets 400 nM or exceeds it?
N
